# credit: patent US20160031942A1

Below, each entry is listed alongside its reported pKd.
Molecular target: T1, Recombinant protein RHAMM-CT (truncated RHAMM, carboxy terminus containing the HA binding domain, amino acids … (UniProt Q00547 706-766))
T1 chain: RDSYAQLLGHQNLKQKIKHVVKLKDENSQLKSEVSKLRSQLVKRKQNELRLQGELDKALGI
Test: SPR; RHAMM 750 nM
Square brackets hold non-standard residues; d marks the D form. Ends that are not written are not given here. Ahx = NCCCCCC(=O)O
Scale: negative log10 of molar concentration, which is what pKd denotes.

Field: example entries. Status: answers known.
GEFEEEAEEEVA-NH2 (Synthetic 12-mer made on Rink amide MBHA resin) [peptide 11a (SEQ ID NO: 11), unmodified tubulin-derived peptide, beta-IV CTT]; 6.84
Ac-C[Ahx]FTEAESNMNDLV-NH2 [peptide 14b (SEQ ID NO: 34), SEQ ID NO: 14 with N-acetyl cysteine modified N-terminus]; 7.54
SVEAEAEEGEEY-NH2 (Synthetic 12-mer made on Rink amide MBHA resin) [peptide 3a (SEQ ID NO: 3), unmodified tubulin-derived peptide, alpha-IIIc CTT]; 6.49
EAFEDEEEEIDG-NH2 (Synthetic 12-mer made on Rink amide MBHA resin) [peptide 12a (SEQ ID NO: 12), unmodified tubulin-derived peptide]; 6.67

Pending binder:
Task: Please give the measured pKd for this binder: Ac-C[Ahx]EEDFGEEAEEEA-NH2 [peptide 9b (SEQ ID NO: 28), SEQ ID NO: 9 with N-acetyl cysteine modified N-terminus]
Result: 7.47
